biological target: Gonadotropin-releasing hormone receptor (Homo sapiens); assay: Antagonist activity at N-terminal FLAG-tagged human full-length GnRHR expressed in HEK293T cells assessed as inhibition of GnRH-induced calcium mobilization preincubated for 15 mins followed by agonist addition by FLIPR assay
Sequence (P30968 whole entry): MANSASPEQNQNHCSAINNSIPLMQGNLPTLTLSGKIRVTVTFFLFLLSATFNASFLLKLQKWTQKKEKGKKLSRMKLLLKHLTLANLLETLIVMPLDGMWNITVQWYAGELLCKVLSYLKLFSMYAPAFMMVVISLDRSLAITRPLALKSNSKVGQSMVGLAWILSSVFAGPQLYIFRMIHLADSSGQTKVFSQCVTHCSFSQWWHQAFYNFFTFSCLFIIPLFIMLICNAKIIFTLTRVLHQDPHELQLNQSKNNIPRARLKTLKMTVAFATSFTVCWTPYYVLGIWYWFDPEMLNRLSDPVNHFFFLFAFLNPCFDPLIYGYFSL
readout: pKi
Lab note — pKi values are minus log10 of concentrations in M.

Observe how each entry below is paired with its result.
structure_smiles: CC(C)(C)c1ccc(-c2nc3c(N4CCN(Cc5cccc6nccnc56)CC4)cccc3[nH]2)cc1
readout_value: 7.91

structure_smiles: CC(C)(C)OC(=O)N[C@@H](Cn1cc(CN2CCN(c3cccc4[nH]c(-c5ccc(C(C)(C)C)cc5)nc34)CC2)nn1)C(=O)O
readout_value: 6.73

structure_smiles: CC(=O)N[C@@H]1[C@@H](OC(C)=O)[C@H](OC(C)=O)[C@@H](COC(C)=O)O[C@H]1n1cc(CN2CCN(c3cccc4[nH]c(-c5ccc(C(C)(C)C)cc5)nc34)CC2)nn1
readout_value: 6.80

structure_smiles: CC(C)(C)c1ccc(-c2nc3c(N4CCN(Cc5cn(CCF)nn5)CC4)cccc3[nH]2)cc1
readout_value: 7.86

structure_smiles: C#CCN1CCN(c2cccc3[nH]c(-c4ccc(C(C)(C)C)cc4)nc23)CC1
readout_value: 6.40

structure_smiles: CC(C)(C)c1ccc(-c2nc3c(N4CCN(CCF)CC4)cccc3[nH]2)cc1
readout_value: 6.60

structure_smiles: CC(C)(C)c1ccc(-c2nc3c(N4CCN(Cc5cn(-c6nc7ccccc7[nH]6)nn5)CC4)cccc3[nH]2)cc1
readout_value: 6.98

structure_smiles: COc1cc(OC)c(NC(=O)c2ccc(Cc3cc4c(cc3C)C(C)(C)CCC4(C)C)o2)c(OC)c1
readout_value: 7.72

Now turn to the next molecule.
Query: Which measured pKi belongs to CC(C)(C)c1ccc(-c2nc3c(N4CCN(Cc5cn(-c6ccc(F)cc6)nn5)CC4)cccc3[nH]2)cc1 , tested on Gonadotropin-releasing hormone receptor (Homo sapiens)?
Reply: 6.39

meta.source: ChEMBL document CHEMBL4261559
